assay-details: soluble on expression in E. coli; label from the status in PepcDB or PDB records
measured-property: soluble on expression in E. coli

>>> value_observed("GPGSMTANSKPARFLALAAAKQGTTANVAFNALSVYAKMELSKQTNKMLKVHAATTPLVALIQKRTGIKAAAEAVRQTQTAAKATATVSSYDNSEINPQYIGADIAAKMEQMRKHESYGKIKKDGHTLSAPSTAKFPTAEDSTLRKITISVAVQVLCTGSSNSKWQISGKLEG")
"soluble"
>>> value_observed("RIEDIETKNIQYEERVSVQADLGSQTLHVRGLIDSGNQLYDPLTKTPVMIIYIDKLEPIFGTAETMIIRNTDPLEAIEQLDDSFRFLDKMRLIPYRGVGQQNQFLLCVKPDHVTIMTKEEMISADKCLIGISTTKLSADGEFDAIIHPKMLSGKAVKHVS")
"soluble"

----------
assay-details: soluble on expression in E. coli; label from the status in PepcDB or PDB records
measured-property: soluble on expression in E. coli

>>> value_observed("MAHHHHHHMGNTGVPSFVSTLGPPPPINLFKECQSPLTSGFSSWASFHWILLSDAFSHYYRPLECQTFYGCNFQKQLDAAANYNSFWPHHSRRLEAIRSNTPEQLCITSLHPPSRSPLTQQFPSGSFTQSPYGCRPRSLPCTAPQQWQMHRRSLQQGREHEAGRLLQQPLSFSLI")
"not soluble"
>>> value_observed("TSGTLYLVPTPIGNLQDMTFRAVATLKEVDFICAEDTRNTGLLLKHFDIATKQISFHEHNAYEKIPDLIDLLISGRSLAQVSDAGMPSISDPGHDLVKAAIDSDIAVVALPGA")
"not soluble"

----------
assay-details: soluble on expression in E. coli; label from the status in PepcDB or PDB records
measured-property: soluble on expression in E. coli

Some sequences with recorded soluble on expression in E. coli:
>>> value_observed("MATARTARSRRKVRKVRDKWKEKVWYEIYATPEFGGVFIGYTPANDPSLVLGRVAETSLRDLTGDPTKHMHRVYFKIFGVTGNKAIAQYYGHDTTREFMKSQIRRRRSRIDAILDVKTQDGHKIRTKAMVLTAYRANTKQKSDIRKKMEEIIKAMAKEKTFPQYVQAMLFGEMAEKIKNECKKIFPIKNVIIYKSEVLSLAKKEENEGFVKEAEEETAEAQELEHHHHHH")
"soluble"
>>> value_observed("MSLTNLHYTVKSLMRFKDKTVIISGGGNSAIDWANELEPIAKKVYLTYRKEALNGHEAQISQLLSSSATCLFHTTISKLIARDNKEVIEQVELTDHQTGEVTNLAVDEVIINHGYERDKSLLDQSEVTLDRIDDYYIAGTPTSATSVGGIYAAGDVLKHEGKLHLIAGAFQDAANAVNQAKQWIEPEAHQSAMVSSHNHVFKERNRELIRQMLKEGHHHHHH")
"not soluble"
>>> value_observed("MPRPALRSRSLRRVYVKLPSGKTVIHYERKRNDIAICAICKKPLHGVKTNFLHKYSKSEKRPERPFGGYLCSSCLTQLIKATVRQQLQ")
"soluble"
>>> value_observed("MSLSIYSVGRWICRSYFRLFFKVEVIGASRIPDEGGLLLCCNHFSNYDPPFVGSFFPRKVRFMAKEELFRFKPLQSLMMAVGAFPVRRGAGDKQALKVGLKLLKEGETLGIFPEGTRSKDGQIGKGLSGVGFFALRSDATVVPCAIVGKYRFFRKVRFVIGEPVPMEELKERKASAEEATEVIMKAIRKLHEQNQMSEGHHHHHH")
"soluble"
>>> value_observed("MGSDKIHHHHHHMRDFSSDHSALALNTASLGHNLEGHGAGWTSEQVIDACAERGFGSIVFWRREIGERAVKIGERVRSAGLTVAGLCRTPFLVGTQATDVESVMDDFKRSIDMAAALGAPVLTIVVGGVHPGTKGVAESLKIVADRVAEAAPCAQASGVKLALEPLNPVYAGNRSCLTTLRDAVDLCDRIAAPNVGIAVDVYHVWWDTELERQLKRAGAERIYGYHLCDWLAETNDVLLDRGMMGDGVADLKAIRSFVEGAGYRGPCEVEIFSANDWWKRDPGEVLDVMVERFRNCC")
"not soluble"

Query block: Using the record for MGHHHHHHSHMIHIVQAKDKGQTARATKFLALDKCLPHRDFLQILEIEHDPSAPDYLEYDIEWLTILRATDDLINVTGRLWNMPESNGLHARWDYSATEEGMKEVLEKLNHDLKVPCNFSVTAACYDPSKPQTQMQLIHRINPQTTEFCAQLGIIDINVRLQKSKEEHHVCGEYEEQDDVESNDSGEDQSEYNTDTSALSSINPDEIMLDEEEDEDSIVSAHSGMNTPSVEPSDQASEFSASFSDVRILPGSMIVSSDDTVDSTIDREGKPGGTVESGNGEDLTKVPLKRLSDEHEPEQRKKIKRRNQAIYAAVDDDDDDAA , report its soluble on expression in E. coli.
Result block: not soluble

Query block: Here is the next sequence: MSLQEIKGLSFYHQDWEVYCSNTGTCRAAGYQSDDGSQQPASILLTREAGSKQPVQAEFALAGDDQETFAANKIKNIRFYVNGKDLGTVSVKGVDSPLMGKLSTAQVNGLLQQATQKVDIVFKNNHYVWKISDSGMTAALLKVDDFQKRIGTVGALVKKGKSDDSKVLMPQPKLVIKKVKTADQPYLTLNPKNKQYASLYKLLMAAQPTPKEDGFCEGVYDFDSDAITAQSIELYKLTNNKVLATTLCWRGAYNEGYGAWVLNQSLTGPATYITQSASDIASGIISSAQKGRGIGDCWMSQSWIWNGQKYVQNQDMWTGMCKGLAAGGVWELDQIEAVVKEGHHHHHH
Result block: soluble

Query block: Here is the next sequence: MAHHHHHHMGTMGASNDVTDVDDENLLSEELQSSSTGSWSSMGDLQTTESAESDAPSEESDPDERVRRATASFLQWKNKEYVPLSLDEKRAIKEYRKMVAQEEGSYTSTRAQRQRDRAPKLFISREDDWVDLGSPAEGDGLARRRSRKIRFVAAVIASKEVDVHNDGLVVLTDAGEEVPELPRSASILRMSCVKNLTEEAPVFVDDLNSCMMEDEGRSCESAVRWEFPR
Result block: soluble

Query block: Here is the next sequence: STTLTHRARRTEISKNSEKKMESEEDSNWEKSPDNEDSGDSKDIRLTLMEEVLLLGLKDKEGYTSFWNDCISSGLRGGILIELAMRGRIYLEPPTMRKKRLLDRKVLLKSDSPTGDVLLDETLKHIKATEPTETVQTWIELLTGETWNPFKLQYQLRNVRERIAKNLVEKGILTTEKQNFLLFDMTTHPVTNTTEKQRLVKKLQDSVLERWVNDPQRMDKRTLALLVLAHSSDVLENVFSSLTDDKYDVAMNRAKDLVELDPEVEGTKPSATEMIWAVLAAFNKS
Result block: soluble

Query block: Here is the next sequence: MGSDKIHHHHHHMSKLFDCITDELQDFIAAQHLFFVGSAPLSPTGHVNLSPKGLGCFRVLSPKQVGYVDLTGSGNETSAHLQENGRITFMFCAFEEPACILRLYGQGNTILPSSPDWDSLYSLFLPMPGTRQIIVADIEKVQTSCGFGVPLYEYQGQRQTLVNWASKKGEEGVREYQQKKNLVSIDGLPTPLSKLS
Result block: not soluble

Query block: Here is the next sequence: MALPLPDPSEQAYSDTLKTMLHERIAHSGGWISFADYMETVLYTPETGYYSGGAAKFGTAGDFVTAPEISPLFGQALARQIAPILSAVNQGSILEFGAGSGKLAVDLLCALEELNNLPQHYYILDLSADLQQRQRAMIEQHIPHLASRVSWLSALPEQFEGLILANEVLDAMPVHLVAWQNGNIAERGVIWKDQGPVWQDQPLAAGELLDVARQLPPADQFSYPLYISEISLTNRHFICSLAMLLQRGAILLVDYGFGQNEYYHPQRHQGTLMCHYRHHAHDDPFFLPGLQDITSHVDFSTIARTALDSGLQLAGYTTQAHFLINCGITDLLARTPADQPGSYLPLVSQVQRLVSPAEMGELFKVMVLSRDIDIDAASCGFTRGDLRRLLLEHHHHHH
Result block: not soluble
